Hey, just so you know, these numbers are from PubChem BioAssay.

Entries and their inhibition values follow.
systemTested: L-lactate dehydrogenase (Plasmodium falciparum (isolate CDC / Honduras))
experiment: PfLDH activity inhibition – cell lysate, 3D7 strain, counter-screen for P. falciparum growth inhibition project (AID 2304);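 further: 0% = vehicle and 100% = reference inhibitor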
conditionInfo: P. falciparum 3D7 crude extract, LDH APAD/NBT absorbance; at 2 µM; active compounds read high
Write down the numeric answer in % and omit the unit.

These recorded examples may help you get a feel for the data.
In [3]: df
Out[3]:
                                   compound  experimentalendpoint  unitofmeasure  assayresult
0  CC(C)NCc1ccc(-c2ccc(CN3CCCC(c4ccccc4)C3)cc2)c(C(=O)NCC2CCCCC2)c1 (stereo not drawn)            inhibition              %           -3
1  C=C[C@H]1CN(CCCCCCC)CC[C@H]1C[C@@H](Cc1ccnc2ccc(OC)cc12)OC(=O)[C@](OC)(c1ccccc1)C(F)(F)F            inhibition              %            7
2  COc1ccc(CCC(C)(C)NCC(O)c2cccc(C(F)(F)F)c2)cc1 (stereo not drawn)            inhibition              %            3
3  Cc1cccc2[nH]c(-c3ccc(-c4cccc(NC(=O)C(C)CN5CCN(C)CC5)c4)cc3)nc12 (stereo not drawn)            inhibition              %            3
4  O=C(Nc1ccc(Cl)c(C(F)(F)F)c1)NC1CCN(CCCCCNC(=O)[C@@H]2C[C@H]2c2ccc(Cl)c(Cl)c2)CC1            inhibition              %           -1

Q. Param readout= inhibition; system= L-lactate dehydrogenase (Plasmodium falciparum (isolate CDC / Honduras)); entry= `CN1CCN(c2ccnc3ccc(NC(=O)Nc4ccc(-c5ccncc5)c(C#N)c4)cc23)CC1` ; returns value.
A. -3

Q. Param readout= inhibition; system= L-lactate dehydrogenase (Plasmodium falciparum (isolate CDC / Honduras)); entry= `COc1ccccc1-c1sccc1C(=O)NC1(c2cc(Cl)cc(Cl)c2)CCCC1` ; returns value.
A. -3

Q. Param readout= inhibition; system= L-lactate dehydrogenase (Plasmodium falciparum (isolate CDC / Honduras)); entry= `NCc1ccc(CNCc2cccc(-c3ccc(-c4nc5ccccc5[nH]4)cc3)c2)cc1` ; returns value.
A. -8

Q. Param readout= inhibition; system= L-lactate dehydrogenase (Plasmodium falciparum (isolate CDC / Honduras)); entry= `CCCNCc1ccc(-c2ccc(CN(Cc3cnc(C)cn3)C(=O)CC#N)cc2)nc1` ; returns value.
A. 5

Q. Param readout= inhibition; system= L-lactate dehydrogenase (Plasmodium falciparum (isolate CDC / Honduras)); entry= `NC(=O)c1ccc(-c2ccc3ccnc(N)c3c2)cc1` ; returns value.
A. -2

Q. Param readout= inhibition; system= L-lactate dehydrogenase (Plasmodium falciparum (isolate CDC / Honduras)); entry= `O=C(Cn1c(CCc2cccc(F)c2F)cc(=O)c2cccnc21)N(CCCn1ccnc1)Cc1ccc(-c2ccc(C(F)(F)F)cc2)cc1` ; returns value.
A. -3

Q. Param readout= inhibition; system= L-lactate dehydrogenase (Plasmodium falciparum (isolate CDC / Honduras)); entry= `NC(=NCCc1ccc(Cl)c(Cl)c1)c1ccc2ccccc2c1` ; returns value.
A. -3

Q. Param readout= inhibition; system= L-lactate dehydrogenase (Plasmodium falciparum (isolate CDC / Honduras)); entry= `O=C(Nc1ccc(-c2nc3ccccc3[nH]2)cc1)c1ccc(-c2cccc([N+](=O)[O-])c2)o1` ; returns value.
A. -2

Q. Param readout= inhibition; system= L-lactate dehydrogenase (Plasmodium falciparum (isolate CDC / Honduras)); entry= `CCCCN1CCN(c2cc(NS(=O)(=O)c3cccc(C(=O)Nc4ccc(C(F)(F)F)cc4)c3)ccc2OC)CC1` ; returns value.
A. 4

Q. Param readout= inhibition; system= L-lactate dehydrogenase (Plasmodium falciparum (isolate CDC / Honduras)); entry= `COc1ccc2nccc([C@@H](O)CN3CCC(NCc4ccc(OC)c(NC=O)c4)CC3)c2c1` ; returns value.
A. 3

Q. Param readout= inhibition; system= L-lactate dehydrogenase (Plasmodium falciparum (isolate CDC / Honduras)); entry= `c1ccc(Oc2ccc(Nc3ccnc4ccc(-c5ccccn5)cc34)cc2)cc1` ; returns value.
A. -5

Q. Param readout= inhibition; system= L-lactate dehydrogenase (Plasmodium falciparum (isolate CDC / Honduras)); entry= `CSc1c(CNCCCNc2cc(=O)c3ccccc3[nH]2)[nH]c2ccccc12` ; returns value.
A. 2

Q. Param readout= inhibition; system= L-lactate dehydrogenase (Plasmodium falciparum (isolate CDC / Honduras)); entry= N#Cc1ccc2c(c1)CCN(CCC1CCC(NC(=O)/C=C/c3c[nH]c4ccc(F)cc34)CC1)CC2 (stereo not drawn) ; returns value.
A. 4

====

experiment: inhibition of 3D7 malaria parasite growth – strain 3D7 (AID 2306);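 further: 0% = DMSO wells and 100% = chloroquine plus artemisinin control wells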
conditionInfo: P. falciparum 3D7 erythrocytic growth, LDH absorbance, 72 h; at 2 µM; active compounds read high
Entries and their growth inhibition values follow.
Write down the numeric answer in % and omit the unit.

These recorded examples may help you get a feel for the data.
>>> df
                                   compound  experimentalendpoint  unitofmeasure  assayresult
0  O=C(NCCCCN1CCC(c2ccc3ccccc3c2O)CC1)c1ccc(-c2ccc(Cl)cc2)cc1     growth inhibition              %          101
1  O=C(Nc1ccc(OC2CCN(Cc3ccc(F)cc3)CC2)cc1)c1cccs1     growth inhibition              %           84
2  CC1CCCN1Cc1ccc(-c2ccc3c(=O)cc(CCc4cccc(F)c4F)n(CC(=O)N(C)Cc4ccc(-c5ccc(C(F)(F)F)cc5)cc4)c3n2)cc1 (centres undefined)     growth inhibition              %          102
3  CC(C)CCC[C@@H]([C@@H](CC1CCCCC1)C(=O)N[C@@H](CCCCNC(=O)OCc1ccccc1)C(=O)Nc1nccs1)N(O)C=O     growth inhibition              %           98
4  Cc1cccc(CN2CCN(c3ncc(C(=O)NC4CC4)cc3Cl)CC2)c1     growth inhibition              %           84
5  CCN1CCN(Cc2c(O)ccc3c(=O)c(Oc4cc(C)cc(C)c4)c(C(F)(F)F)oc23)CC1     growth inhibition              %           96

Q. Record request: growth inhibition value, item `FC(F)(F)c1ccc2nc(-c3ccc(-c4cccc(CN5CCN(c6ccncc6)CC5)c4)cc3)[nH]c2c1`
A. 101

Q. Record request: growth inhibition value, item O=C(NC1CCC(N2CCC(c3nc4ccccc4s3)CC2)CC1)c1cc2ccccc2[nH]1 (centres undefined)
A. 94

Q. Record request: growth inhibition value, item `COc1cccc(-c2cnc(N)c(-c3nc4ccc(C(F)(F)F)cc4[nH]3)c2)c1`
A. 99

====

experiment: human hepatoma cell viability loss – ATP luminescence, cytotoxicity control for P. falciparum antimalarial project, primary screen (AID 2303);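 further: 0% = DMSO wells and 100% = digitonin-killed cells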
conditionInfo: HepG2 viability, 24-48 h, at 10 µM, active compounds read high
Calls of active or inactive are those of the source.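 How the source made its calls: active means inhibition above 50%; inactive means the rest.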
Entries and their inhibition values follow.

>>> df
                                   molecule  experimentalendpoint    assayresult
0  NC1=NC(CCc2ccccc2)N(c2ccccc2)C(N)=N1 (stereo unspecified)            inhibition  1% (inactive)

Q. Record request: inhibition value, item `NC(=NCCc1ccc(Cl)cc1)c1ccc(Cl)c(Cl)c1`
A. 43% (inactive)

Q. Record request: inhibition value, item `CSc1sc(NC(=O)Nc2cccc(C(F)(F)F)c2)cc1C#N`
A. 27% (inactive)

Q. Record request: inhibition value, item `Nc1nc(N)c2c(Cl)c(CNc3cccc(C(=O)O)c3)ccc2n1`
A. 69% (active)

Q. Record request: inhibition value, item `CCCCNC(=O)[C@@H](NC(=O)c1ccc(O)c(-c2ccc(Cl)c(Cl)c2)c1)C(C)C`
A. -4% (inactive)

Q. Record request: inhibition value, item `CC1(C)N=C(N)N=C(N)N1OCc1ccc2ccccc2c1`
A. 65% (active)

====

Entries and their inhibition values follow.
systemTested: L-lactate dehydrogenase (Plasmodium falciparum (isolate CDC / Honduras)) (UniProt Q27743)
Sequence (Q27743 whole entry, looked up): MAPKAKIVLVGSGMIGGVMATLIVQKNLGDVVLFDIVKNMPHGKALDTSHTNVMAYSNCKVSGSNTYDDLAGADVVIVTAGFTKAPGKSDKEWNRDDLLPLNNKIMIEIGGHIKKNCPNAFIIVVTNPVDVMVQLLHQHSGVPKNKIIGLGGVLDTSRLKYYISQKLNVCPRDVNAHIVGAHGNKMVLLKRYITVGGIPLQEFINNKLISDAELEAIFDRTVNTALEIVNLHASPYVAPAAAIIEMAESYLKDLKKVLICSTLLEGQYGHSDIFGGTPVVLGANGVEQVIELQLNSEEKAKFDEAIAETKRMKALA
experiment: PfLDH activity inhibition – cell lysate, 3D7 strain, counter-screen for P. falciparum growth inhibition project (AID 2304);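 further: 0% = vehicle and 100% = reference inhibitor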
conditionInfo: P. falciparum 3D7 crude extract, LDH APAD/NBT absorbance; at 2 µM; active compounds read high
Write down the numeric answer in % and omit the unit.

These recorded examples may help you get a feel for the data.
In [3]: df
Out[3]:
                                   compound  assayresult
0  Cc1ccccc1C1CCN(C2CCC(NC(=O)c3cc(-c4ccccc4)oc3C)CC2)CC1 (stereo not given)            0
1  N#Cc1ccc2c(c1)CCN(CCC1CCC(NC(=O)/C=C/c3ccc(Cl)c(Cl)c3)CC1)CC2 (stereo not given)          -11

Q. Param readout= inhibition; system= L-lactate dehydrogenase (Plasmodium falciparum (isolate CDC / Honduras)) (UniProt Q27743); entry= COc1cc(C(=O)N2COCC(CCCN3CCC(N4CCCC4)CC3)(c3ccc(Cl)c(Cl)c3)C2)cc(OC)c1OC (stereo not given) ; returns value.
A. -1

Q. Param readout= inhibition; system= L-lactate dehydrogenase (Plasmodium falciparum (isolate CDC / Honduras)) (UniProt Q27743); entry= `Cc1cc(N2CCCC2)nc(Nc2ccc(NC(=O)c3ccc(Br)o3)cc2)n1` ; returns value.
A. 0

Q. Param readout= inhibition; system= L-lactate dehydrogenase (Plasmodium falciparum (isolate CDC / Honduras)) (UniProt Q27743); entry= `CCCCC(=O)N(CCOC)Cc1ccc(-c2ccc(CNCCC)cn2)cc1` ; returns value.
A. -3

Q. Param readout= inhibition; system= L-lactate dehydrogenase (Plasmodium falciparum (isolate CDC / Honduras)) (UniProt Q27743); entry= CCCC(C)Nc1nc(C)cc(N[C@@H](CC(C)C)C(=O)NCCc2ccccc2)n1 (stereo not given in full) ; returns value.
A. -2

Q. Param readout= inhibition; system= L-lactate dehydrogenase (Plasmodium falciparum (isolate CDC / Honduras)) (UniProt Q27743); entry= `N#Cc1cccc(C(=O)Nc2ccc(-c3cccc(CN4CCCC4)c3)cc2)c1` ; returns value.
A. 2
